# experimental_target: Protein translocase subunit SecA (Escherichia coli (strain K12))
# assay_comment: Assay to Identify E. coli SecA ATPase Inhibitors
# Format: functional
# Set-up: scale not given: direction of the effect not stated beside the values
# condition_label: 30 µM
Potency and affinity values are given separately.
assay_readout: Percent Effect (%)
Reply numerically in %, unit not repeated.

Record summary for NC(=O)CN1CCCN(C(=O)c2ccn(-c3cccc(F)c3)n2)CC1 : reported Percent Effect = -1.81

Record summary for c1coc(CN2C[C@H](OCC3CCOCC3)[C@H]3COC[C@H]32)c1 : reported Percent Effect = -3.71

Record summary for CNC(=O)[C@H]1C[C@H]2OCC[C@H]2N(Cc2cccc3ccccc23)C1 : reported Percent Effect = -2.27

Record summary for CNC(=O)C1CCN(C(=O)CCn2cccn2)CC1 : reported Percent Effect = -7.35

Record summary for c1sc(C2CCCC2)nc1CN1CCn2c(nnc2C2CC2)C1 : reported Percent Effect = -6.12

Record summary for COc1cc2nc3n(c(=O)c2cc1OC)CCN(C)CC3 : reported Percent Effect = -7.78

Record summary for COc1ccc(C(=O)N2CCCCC2Cn2cccn2)c(F)c1 (centres undefined) : reported Percent Effect = -1.68

Record summary for CC(C)CCc1noc(CN2CCCN(C(=O)c3ccco3)CC2)n1 : reported Percent Effect = -5.45

Record summary for CNC(=O)NC(=O)Cn1cc(-c2ccccc2)cn1 : reported Percent Effect = -4.72

Record summary for Cn1nccc1-c1ccc2nc(C3CCN(CCO)CC3)nn2c1 : reported Percent Effect = -3.12

Record summary for Cc1nc(C2CCCN(C(=O)c3cccc4c3OCO4)C2)no1 (centres undefined) : reported Percent Effect = -0.923

Record summary for O=C1[C@@H]2CCN(Cc3ccncc3)C[C@@H]2OCCN1c1ccccc1 : reported Percent Effect = -4.52

Record summary for Cc1cnn(C2CN(CC(=O)NCCc3ccccc3)C2)c1 : reported Percent Effect = -3.73

Record summary for Cc1cc(NC(=O)C(c2cccc(F)c2)N2CCOCC2)ccn1 (centres undefined) : reported Percent Effect = -4.97

Record summary for COc1cccc(COCC(=O)N2CCCC(N3CCCC3)CC2)c1 (centres undefined) : reported Percent Effect = -1.29

Record summary for COc1cccc2c1ccn2CCC(=O)N1CCCC(C(=O)O)C1 (centres undefined) : reported Percent Effect = -4.55

Record summary for CC(=O)NCC(=O)N1CC[C@H](OCC2CC2)[C@@H]1Cc1cccnc1 : reported Percent Effect = -0.669

Record summary for COCC1CN(C(=O)c2ccnnc2)Cc2c1cnn2C (centres undefined) : reported Percent Effect = -3.58

Record summary for Cc1cc(=O)n2ncnc2n1CC(O)c1cc(F)ccc1F (centres undefined) : reported Percent Effect = -4.1

Record summary for COc1cccc(CN2CCN(C(=O)CN3CCOCC3)CC2)n1 : reported Percent Effect = 0.629

Record summary for COCc1n[nH]/c(=N/C(=O)COc2cnc(C)cc2O)s1 : reported Percent Effect = -1.58

Record summary for COCCO[C@@H]1CCN(C(=O)c2ccc(C)o2)[C@@H]1Cc1cccnc1 : reported Percent Effect = -5.36

Record summary for Cc1cc(C)nc(CCNC(=O)[C@H]2CNC[C@@H](C(=O)N3CCCC3)C2)n1 : reported Percent Effect = -5

Record summary for CCc1nc2n(n1)CC(NCc1ncc(-c3ccccc3)o1)CC2 (centres undefined) : reported Percent Effect = -1.59
